# assayed-system: T1, human CD200R1 expressed on cells (Jurkat-CD200R1, U937-CD200R1, HH cells) (human, UniProt Q8TD46 25-348)
# T1 construct: whole, on cells; also called HH (CRL-2105); cell surface-expressed CD200R1
# T1 sequence (looked up): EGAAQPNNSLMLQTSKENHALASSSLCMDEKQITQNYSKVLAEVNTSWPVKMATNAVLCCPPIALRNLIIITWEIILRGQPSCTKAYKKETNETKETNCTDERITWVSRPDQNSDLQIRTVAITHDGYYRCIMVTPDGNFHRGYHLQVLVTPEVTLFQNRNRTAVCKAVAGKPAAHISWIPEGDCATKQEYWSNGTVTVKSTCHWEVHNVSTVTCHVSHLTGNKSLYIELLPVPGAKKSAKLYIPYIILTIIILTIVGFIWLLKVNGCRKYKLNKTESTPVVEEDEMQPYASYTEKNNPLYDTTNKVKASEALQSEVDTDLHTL
# test: flow cytometry, HH cells; drawn table
Reported Geo mean (%) at 200 nM values for the following binders.

| binder | Geo mean (%) at 200 nM |
| --- | --- |
| P001018 (huOX108.1) (antibody, V domains shown, also called humanized antibody P001018) VH: QVQLVQSGAEVKKPGASVKVSCKASGYTFTSYVMHWVRQAPGQGLEWMGYINPYNDDTNYNEKFKGRVTMTRDTSTSTVYMELSSLRSEDTAVYYCAREDYYGSRWGYWGQGTLVTVSS VL: DIVLTQSPASLAVSPGQRATITCRASKSVSTSGYSYMHWYQQKPGQPPKLLIYLASNLESGVPARFSGSGSGTDFTLTINPVEANDTANYYCQHSRELLTFGQGTKVEIK | 96.9 |
| P001018 scFv mutant H3-Y102K (scFv) scFv: QVQLVQSGAEVKKPGASVKVSCKASGYTFTSYVMHWVRQAPGQGLEWMGYINPYNDDTNYNEKFKGRVTMTRDTSTSTVYMELSSLRSEDTAVYYCAREDYYGSRWGKWGQGTLVTVSSGGGGSGGGGSGGGGSDIVLTQSPASLAVSPGQRATITCRASKSVSTSGYSYMHWYQQKPGQPPKLLIYLASNLESGVPARFSGSGSGTDFTLTINPVEANDTANYYCQHSRELLTFGQGTKVEIK | 104 |
| P001018 scFv mutant H3-Y102T (scFv) scFv: QVQLVQSGAEVKKPGASVKVSCKASGYTFTSYVMHWVRQAPGQGLEWMGYINPYNDDTNYNEKFKGRVTMTRDTSTSTVYMELSSLRSEDTAVYYCAREDYYGSRWGTWGQGTLVTVSSGGGGSGGGGSGGGGSDIVLTQSPASLAVSPGQRATITCRASKSVSTSGYSYMHWYQQKPGQPPKLLIYLASNLESGVPARFSGSGSGTDFTLTINPVEANDTANYYCQHSRELLTFGQGTKVEIK | 107 |
